# TGI annotations
Test system: OVCAR-8 ovarian
assayText: NCI tumour cell line growth inhibition, 48 h

compound	TGI
NC(=S)N/N=C\c1ccc(OCc2cccc(COc3ccc(/C=N/NC(N)=S)cc3)n2)cc1	> 100 µM
CC1(C)C(=O)C(C)(C)C1=NN	> 100 µM
CC(=O)/C(=C/n1c(=S)[nH]c2ccccc21)C(=O)Nc1ccccc1C	> 100 µM
O=C1c2ccc([N+](=O)[O-])cc2-c2c1c1ccccc1c(=O)n2CCCNCCCNCCCn1c2c(c3ccc([N+](=O)[O-])cc3c1=O)C(=O)c1ccccc1-2	2.32 µM
Cc1nc2c3c(ncn2n1)Oc1c(c(-c2ccccc2)nn1-c1ccccc1)C3c1ccc(Cl)cc1 (stereo not drawn)	> 100 µM
CCOP(=O)(OCC)C(Nc1cccc(F)c1)c1ccccc1 (stereo not drawn)	> 100 µM
CCOC(=O)C1=C(C(=O)c2ccc(C)cc2)C(c2cccc([N+](=O)[O-])c2)C(C(=O)c2ccc(C)cc2)=C(C(=O)OCC)N1	45 µM
O=Nc1c(-c2c(O)[nH]c3ccc([N+](=O)[O-])cc23)[nH]c2ccc(O)cc12	> 100 µM
O=C(Nc1ccc(F)cc1)c1ccc(NC2=C(Cl)C(=O)N(Cc3ccccc3)C2=O)cc1	30.9 µM
O=C(/C(=C\C(=O)c1cccs1)c1ccsc1)c1ccc(Br)cc1	> 100 µM
CN(C)CCNC(=O)c1ccc(NCCCN(C)CCCNc2ccc3c(=O)n(CCN(C)C)c(=O)n4c5ccccc5c(=O)c2c34)c2c(=O)c3ccccc3[nH]c12	0.885 µM
CC(C)C1(O)C(c2ccccc2)=C(c2ccccc2)C(c2ccccc2)=C1c1ccccc1	> 100 µM
COc1ccc(C2SCC(=O)N2NC(=O)C(O)c2ccccc2)cc1OC (stereo not drawn)	> 100 µM
O=C1CCC2(CCO1)OCCO2	> 100 µM
OC1c2ccccc2C2(O)C1C(c1ccccc1)C(c1ccccc1)C2(O)c1ccccc1 (stereo not drawn)	43.5 µM
C=C(CCCCCCCCC)CC(=O)SCCNC(=O)CCNC(=O)C(O)C(C)(C)COP(=O)(O)OP(=O)(O)OCC1OC(n2cnc3c(N)ncnc32)C(O)C1OP(=O)(O)O (stereo not drawn)	> 100 µM
O=C(NCc1cccc(C(F)(F)F)c1)c1cc2sccc2nc1C(F)(F)F	> 100 µM
Cc1cc(C)c(P2C(=C(O[Si](C(C)C)(C(C)C)C(C)C)C(C)(C)C)C2(c2ccccc2)c2ccccc2)c(C)c1 (stereo not drawn)	> 100 µM
